Molecular target: HLA-B*40:01
Test: IEDB peptide-MHC binding, purified MHC/competitive/fluorescence; filed as Kd, often an IC50 or EC50 that approximates it; bounds were set here for any values at or beyond the usual limits of such assays
Settings: source organism: Vibrio vulnificus YJ016
Measure Name: Kd

{"Residues": "SVFELSNFA", "Measure Name": "Kd", "Reported Value": "≥ 5 µM"}

----------
Molecular target: HLA-B*35:01
Assay: IEDB peptide-MHC binding, purified MHC/competitive/radioactivity; filed as Kd, often an IC50 or EC50 that approximates it; bounds were set here for any values at or beyond the usual limits of such assays
Details: source organism: Mammarenavirus guanaritoense

{"Residues": "CPMCCSKIL", "Measured Target": "HLA-B*35:01", "Kd": "18 nM"}

----------
Target: HLA-A*02:03
Test: IEDB peptide-MHC binding, purified MHC/competitive/radioactivity; filed as Kd, often an IC50 or EC50 that approximates it; bounds were set here for any values at or beyond the usual limits of such assays
Details: source organism: Trypanosoma cruzi
Measure Name: Kd (nM)

{"Residues": "GLLPLFLLLG", "Measure Name": "Kd", "Value Unit": "nM", "Reported Value": 138}

----------
Target: HLA-B*35:01
Test: IEDB peptide-MHC binding, purified MHC/direct/fluorescence; filed as Kd, often an IC50 or EC50 that approximates it; bounds were set here for any values at or beyond the usual limits of such assays
Settings: source organism: Yersinia pestis
pKd: −log10 of the molar value.

{"Residues": "FQLYSDLAH", "pKd": 6.07}

----------
Target: HLA-B*46:01
Test: IEDB peptide-MHC binding, purified MHC/direct/fluorescence; filed as Kd, often an IC50 or EC50 that approximates it; bounds were set here for any values at or beyond the usual limits of such assays
Details: source organism: Burkholderia mallei
pKd: −log10 of the molar value.

{"Residues": "RVVRPWGSY", "pKd": "≤ 4.70"}

----------
Biological target: HLA-A*29:02
Assay: IEDB peptide-MHC binding, purified MHC/competitive/fluorescence; bounds were set here for any values at or beyond the usual limits of such assays
Conditions: source organism: Homo sapiens
pIC50: −log10 of the molar value.
Measure Name: pIC50

{"Residues": "SYMMDDLELI", "Measured Target": "HLA-A*29:02", "Reported Value": 6.08}

----------
Biological target: HLA-B*18:01
Experiment: IEDB peptide-MHC binding, purified MHC/direct/fluorescence; filed as Kd, often an IC50 or EC50 that approximates it; bounds were set here for any values at or beyond the usual limits of such assays
Details: source organism: Mammarenavirus lassaense
pKd: −log10 of the molar value.
Measure Name: pKd

{"Residues": "SERFINYAI", "Measure Name": "pKd", "Reported Value": 7.48}

----------
Molecular target: HLA-A*01:01
Test: IEDB peptide-MHC binding, purified MHC/competitive/radioactivity; filed as Kd, often an IC50 or EC50 that approximates it; bounds were set here for any values at or beyond the usual limits of such assays
Conditions: source organism: Dengue virus 3 Martinique/1243/1999
pKd: −log10 of the molar value.

{"Residues": "LTAAVLLLI", "pKd": "≤ 4.11"}

----------
Molecular target: HLA-B*39:01
Assay: IEDB peptide-MHC binding, purified MHC/competitive/fluorescence; filed as Kd, often an IC50 or EC50 that approximates it; bounds were set here for any values at or beyond the usual limits of such assays
Details: source organism: Giardia lamblia ATCC 50803

{"Residues": "APDGFYPFK", "Measured Target": "HLA-B*39:01", "Kd": "≥ 20 µM"}

meta.source: the Immune Epitope Database (IEDB)
